Origin of values: the Immune Epitope Database (IEDB)

# Tested System: HLA-B*44:02
# Assay Name: IEDB peptide-MHC binding, cellular MHC/competitive/fluorescence; bounds were set here for any values at or beyond the usual limits of such assays
# Condition Context: source organism: Mammarenavirus guanaritoense

{"Record Sequence": "ADKNLIKCS", "Tested System": "HLA-B*44:02", "IC50": "≥ 70 µM"}

* * *

# Tested System: HLA-A*02:01
# Assay Name: IEDB peptide-MHC binding, purified MHC/competitive/radioactivity; bounds were set here for any values at or beyond the usual limits of such assays
# Condition Context: source organism: Hepatitis B virus
pIC50: −log10 of the molar value.
Threshold rule: pIC50 greater than or equal to 7 is t; below that, f.

{"Record Sequence": "FLFILLLCL", "Group Label": "f"}
{"Record Sequence": "FLAPLPIHTA", "Group Label": "t"}
